- Test system: Plasmodium falciparum
- experiment: GSK_TCMDC: Inhibition of Plasmodium falciparum Dd2 in whole red blood cells, using parasite LDH activity as an index of growth. Test compounds present at 2uM
- Assay type: functional
assay-endpoint: Inhibition

// below: answered compounds
compound	assay-endpoint	result
CCOC(=O)c1ccc(NC(=O)NCCCC2CCCN(CCCCCNC(=O)/C=C/c3ccc(Cl)c(Cl)c3)C2)cc1 (stereo not drawn)	Inhibition	30%
O=C(Nc1ccc(Cn2ncc(N3CCCNCC3)c(Cl)c2=O)cc1)Nc1ccc(F)cc1[N+](=O)[O-]	Inhibition	0%
Cc1ccoc1C(=O)Nc1ccc(-c2cccc(-c3nc4cccc(C)c4[nH]3)c2)cc1	Inhibition	69%

Provide reported Inhibition for each item, in the same order as listed.
1. CC(C)NCc1ccc(-c2cccc(CN3CCC(c4ccccc4)CC3)c2)c(C(=O)NCC2CCCCC2)c1.O=C(O)C(F)(F)F
2. COc1ccc(C(c2ccc(N(C)C)cc2)c2ccc(N(C)C)cc2)cc1
3. Fc1ccc2[nH]c(-c3cccc(-c4cccc(CNCc5ccccc5)c4)c3)nc2c1.O=C(O)C(F)(F)F
4. CNc1ccc(CNCc2ccc(-c3ccc(-c4nc5cccc(C)c5[nH]4)cc3)cc2)cc1.O=C(O)C(F)(F)F
5. CCCC(C)C(=O)N1CCOC(COCc2cccc(C(F)(F)F)c2)(c2ccc(Cl)cc2)C1 (stereo not drawn)
6. COc1cc(NC(=O)/C=C/c2ccccc2OC(F)(F)F)cc(OCCN2CCCCC2)c1.O=C(O)C(=O)O
7. COc1ccc2c(NN=Cc3cccc(C)n3)ccnc2c1

Out:
1: 76%; 2: 99%; 3: 52%; 4: 92%; 5: 91%; 6: 6%; 7: 51%

----------
- Test system: Plasmodium falciparum
- experiment: GSK_TCMDC: Inhibition of Plasmodium falciparum Dd2 in whole red blood cells, using parasite LDH activity as an index of growth. Test compounds present at 2uM
- Type: functional
assay-endpoint: Inhibition (%)
One number for each entry, in %.

// below: answered compounds
compound-structure-string	numeric-result
Cc1ccc(Nc2nc(C)cc(Nc3cccc(NS(C)(=O)=O)c3)n2)cc1	8
CC(C)N1CCN(C(=O)c2ccc(CNCCCN3CCN(c4ccccc4C(F)(F)F)CC3)s2)CC1.Cl	42
O=S(=O)(c1c(Cl)cc(Cl)cc1Cl)N1CCCCC(c2ccc(C(F)(F)F)cc2)=N1	99
COc1cc2c(cc1OCCN1CCC(N3CCCCC3)CC1)N(C(=O)/C=C/c1ccccc1Cl)CC2	41

Now take the following compound into account.
Input Cc1ccc2cc(NC(=O)CCCCCCCON3C(N)=NC(N)=NC34CCCCC4)ccc2n1.O=C(O)C(F)(F)F . Output Inhibition: 86

----------
- Test system: HepG2
- experiment: GSK_TCMDC: Percent inhibition of human HepG2 cell line. Test compounds present at 10uM.
- Type: functional
Classify as follows. Reported Inhibition greater than or equal to 40%: condition met. Reported Inhibition below: condition not met.

compound	assigned-class
CCc1cccc2sc(N3CCN(C(=O)c4ccc([N+](=O)[O-])o4)CC3)nc12	condition not met
Cc1cc(N[C@@H](CC(C)C)C(=O)NCCOc2ccccc2)nc(Nc2ccccc2)n1.O=C(O)C(F)(F)F	condition not met
CCc1c(CCNCCCCCCNCCc2ccc(Br)cc2)ccc(OC)c1OC.Cl	condition met
CC(=O)Nc1nc(C(=O)Nc2ccc(-c3ccc(-c4nc5ccccc5[nH]4)cc3)cc2)cs1	condition not met
CCNc1cc(CCCC(=O)OCC)nc(Nc2ccc(C)cc2)n1.O=C(O)C(F)(F)F	condition not met
O=C(Nc1ccc(Cl)cc1)Nc1ccc(-c2ccc(-c3nc4ccccc4[nH]3)cc2)cc1	condition met
COc1ccc2c(c1)CC1CN(CCCCNC(=O)c3ccc(NC(=O)c4cc(Cl)cc(Cl)c4)cc3)CCN1C2 (centres undefined)	condition not met
O=C(N[C@@H](CC1CCCCC1)C(=O)NC1CC1)c1ccc(O)c(-c2cccc(C(F)(F)F)c2)c1	condition not met

In: Kindly determine if Inhibition recorded for O=c1cc(NCCCNCc2cc(F)cc(C(F)(F)F)c2)[nH]c2ccccc12 is above or exactly 40%.
Out: condition not met
